Test: Storage stability (Pass/Fail) of base liquid detergent formulation with 9.5% EMES plus candidate hydrotrope
Format: physicochemical
Set-up: key: a sample was said to “Pass” if it remained a clear isotropic liquid at the indicated challenge temperature; a sample was said to “Fail” if it showed any of the above-described evidence of instability or insolubility

# compound, 40° F. storage
measured = [
    ("CCCCCCCCCCCC(=O)OCCOCCOCCOCCOCCOCCOCCOCCOCCOCCOCCOCCOCCOCCOCCOCCOCCOCCOCCOCCOCC(OCCOCCOCCOCCOCCOCCOCCOCCOCCOCCOCCOCCOCCOCCOCCOCCOCCOCCOCCOCCO)C1OCC(OCCOCCOCCOCCOCCOCCOCCOCCOCCOCCOCCOCCOCCOCCOCCOCCOCCOCCOCCOCCO)C1OCCOCCOCCOCCOCCOCCOCCOCCOCCOCCOCCOCCOCCOCCOCCOCCOCCOCCOCCOCCO (stereo not shown) [Tween 20, Polysorbate 20]", "Fail"),
    ("CCCCCCCC[N+](C)(C)[O-] [Synthetic C8 3853-01, Octyl dimethyl amine oxide]", "Pass"),
    ("CCCCCCCCCC[N+](C)(C)[O-] [Genamino x DC40, Decyl dimethyl amine oxide]", "Fail"),
    ("C[N+](C)(C)CC(=O)O", "Fail"),
]

###

Experiment: Storage stability (Pass/Fail) of base liquid detergent formulation with 9.5% EMES plus candidate hydrotrope
Type: physicochemical
Set-up: key: a sample was said to “Pass” if it remained a clear isotropic liquid at the indicated challenge temperature; a sample was said to “Fail” if it showed any of the above-described evidence of instability or insolubility
Conditions: material 2.00 % w/v in base detergent with 9.5% EMES; 3 cycles, -20° C.
outcome_measure: Freeze/Thaw storage

The examples below pair each entry with its known result.
# molecule, outcome_measure, result
rows = [
    ("CC(O)CO (centres unmarked) [Propylene glycol, Propylene glycol (1,2-propane diol), reference compound]", "Freeze/Thaw storage", "Pass"),
    ("C[N+](C)(C)CC(=O)O", "Freeze/Thaw storage", "Pass"),
    ("CCCCCCCCCC[N+](C)(C)[O-] [Genamino x DC40, Decyl dimethyl amine oxide]", "Freeze/Thaw storage", "Pass"),
    ("CCCCCCCC[N+](C)(C)[O-] [Synthetic C8 3853-01, Octyl dimethyl amine oxide]", "Freeze/Thaw storage", "Pass"),
]

Proceed to the following item.
## Task What value of Freeze/Thaw storage has been reported for the following molecule? CCO [Ethanol, Ethyl alcohol, reference compound]
## Result Pass
